Hey, just so you know, these numbers are from patent US20200377958A1.

assay: Phase 1b clinical study (NCT01814826): plasma PK of PEV in combination with AZA; format: in vivo, human; conditions: plasma; MTD expansion, SC AZA cohort (N = 28); cycle 1, day 1; geometric mean
assay_metric: AUC24 (µg·h/mL)
Please state the figure in µg·h/mL; there is no need to write the unit.

Query: Data request, read-out AUC24, for NS(=O)(=O)OC[C@@H]1C[C@@H](n2ccc3c(N[C@H]4CCc5ccccc54)ncnc32)C[C@@H]1O
Reply: 0.89

----------
assay: Phase 1b clinical study (NCT01814826): plasma PK of PEV in combination with AZA; assay type: in vivo, human; conditions: human, plasma, sc, plasma; MTD expansion, SC AZA cohort (N = 28); cycle 1, day 5; mean
assay_metric: half-life (h)
Respond numerically; units are h and should not be typed.

Query: Given NS(=O)(=O)OC[C@@H]1C[C@@H](n2ccc3c(N[C@H]4CCc5ccccc54)ncnc32)C[C@@H]1O , state its recorded half-life.
Reply: 7.89

----------
assay: Phase 1b clinical study (NCT01814826): plasma PK of PEV in combination with AZA; assay type: in vivo, human; conditions: human, plasma, sc, plasma; MTD expansion, SC AZA cohort (N = 28); cycle 1, day 1; median
assay_metric: Tmax (h)
// note: answer is a bare numeric in h

Query: Please report the recorded Tmax for NS(=O)(=O)OC[C@@H]1C[C@@H](n2ccc3c(N[C@H]4CCc5ccccc54)ncnc32)C[C@@H]1O [PEV] .
Reply: 1

----------
test: Phase 1b clinical study (NCT01814826): plasma PK of PEV in combination with AZA; assay type: in vivo, human; conditions: plasma; dose escalation, 20 mg/m^2 cohort (N = 6); cycle 1, day 5; geometric mean
assay_metric: AUC24 (ng·h/mL)
Use ng·h/mL as the unit, but write only the number.

Query: May I ask what AUC24 has been recorded for NS(=O)(=O)OC[C@@H]1C[C@@H](n2ccc3c(N[C@H]4CCc5ccccc54)ncnc32)C[C@@H]1O ?
Reply: 986

----------
test: Phase 1b clinical study (NCT01814826): plasma PK of PEV in combination with AZA; assay type: in vivo, human; conditions: plasma; MTD expansion, IV AZA cohort (N = 26); cycle 1, day 5; geometric mean
assay_metric: AUC24 (ng·h/mL)
Report the figure in ng·h/mL without appending any unit label.

Query: Entry NS(=O)(=O)OC[C@@H]1C[C@@H](n2ccc3c(N[C@H]4CCc5ccccc54)ncnc32)C[C@@H]1O [PEV] has what AUC24?
Reply: 921

----------
assay: Phase 1b clinical study (NCT01814826): plasma PK of PEV in combination with AZA; assay type: in vivo, human; conditions: plasma; MTD expansion, IV AZA cohort, N = 12; cycle 1, day 1; geometric mean
assay_metric: AUC48 (ng·h/mL)
Only the number, expressed in ng·h/mL, is required.

Query: Requested field: AUC48. Item: NS(=O)(=O)OC[C@@H]1C[C@@H](n2ccc3c(N[C@H]4CCc5ccccc54)ncnc32)C[C@@H]1O [PEV]
Reply: 976

----------
test: Phase 1b clinical study (NCT01814826): plasma PK of PEV in combination with AZA; assay type: in vivo, human; conditions: human, plasma, iv, plasma; MTD expansion, IV AZA cohort (N = 26); cycle 1, day 1; median
assay_metric: Tmax (h)
The response must be a number in h with no trailing unit.

Query: Which Tmax is reported for this compound? NS(=O)(=O)OC[C@@H]1C[C@@H](n2ccc3c(N[C@H]4CCc5ccccc54)ncnc32)C[C@@H]1O
Reply: 1.01
